- assay_protocol: activity coefficient (dimensionless); of the first substance listed, at infinite dilution; xn = mol fraction of the nth substance listed
- condition_summary: 338.15 K; 101 kPa; Liquid; Chromatography; x1 = 0
Response key: Satisfied means activity coefficient >= 0.9; Not satisfied means activity coefficient < 0.9.

>  <molecule>
COC(C)=O [methyl ethanoate] + COCC[N+]1(C)CCCC1.O=S(=O)([N-]S(=O)(=O)C(F)(F)F)C(F)(F)F

>  <assigned_category>
Not satisfied

$$$$
>  <molecule>
C#CCCCCCC [1-octyne] + COCC[N+]1(C)CCCC1.O=S(=O)([N-]S(=O)(=O)C(F)(F)F)C(F)(F)F

>  <assigned_category>
Satisfied

$$$$
>  <molecule>
CCCC=O [butanal] + COCC[N+]1(C)CCCC1.O=S(=O)([N-]S(=O)(=O)C(F)(F)F)C(F)(F)F

>  <assigned_category>
Not satisfied

$$$$
>  <molecule>
CCOC(C)=O [ethyl acetate] + COCC[N+]1(C)CCCC1.O=S(=O)([N-]S(=O)(=O)C(F)(F)F)C(F)(F)F

>  <assigned_category>
Satisfied

$$$$
>  <molecule>
C=CCCCCCC [oct-1-ene] + COCC[N+]1(C)CCCC1.O=S(=O)([N-]S(=O)(=O)C(F)(F)F)C(F)(F)F

>  <assigned_category>
Satisfied

$$$$
>  <molecule>
CCC(=O)CC [pentan-3-one] + COCC[N+]1(C)CCCC1.O=S(=O)([N-]S(=O)(=O)C(F)(F)F)C(F)(F)F

>  <assigned_category>
Not satisfied

$$$$
>  <molecule>
C1COCCO1 [1,4-dioxane] + COCC[N+]1(C)CCCC1.O=S(=O)([N-]S(=O)(=O)C(F)(F)F)C(F)(F)F

>  <assigned_category>
Not satisfied

$$$$

---

- assay_protocol: activity coefficient (dimensionless); of the first substance listed, at infinite dilution; xn = mol fraction of the nth substance listed
- condition_summary: 368.15 K; 101 kPa; Liquid; Chromatography; x1 = 0
As shown below, each of these compounds has a reported activity coefficient value.
measurement_label: activity coefficient

>  <compound>
CCCCCCCC [octane] + COCC[N+]1(C)CCCC1.O=S(=O)([N-]S(=O)(=O)C(F)(F)F)C(F)(F)F

>  <quantitative_readout>
27

$$$$
>  <compound>
CC(C)(C)O [2-methylpropan-2-ol] + COCC[N+]1(C)CCCC1.O=S(=O)([N-]S(=O)(=O)C(F)(F)F)C(F)(F)F

>  <quantitative_readout>
1.4

$$$$
>  <compound>
CCO [ethanol] + COCC[N+]1(C)CCCC1.O=S(=O)([N-]S(=O)(=O)C(F)(F)F)C(F)(F)F

>  <quantitative_readout>
1.2

$$$$
>  <compound>
c1ccncc1 [pyridine] + COCC[N+]1(C)CCCC1.O=S(=O)([N-]S(=O)(=O)C(F)(F)F)C(F)(F)F

>  <quantitative_readout>
0.639

$$$$
>  <compound>
C1=CCCCC1 [cyclohexene] + COCC[N+]1(C)CCCC1.O=S(=O)([N-]S(=O)(=O)C(F)(F)F)C(F)(F)F

>  <quantitative_readout>
5.1

$$$$
>  <compound>
Cc1ccc(C)cc1 [1,4-dimethylbenzene] + COCC[N+]1(C)CCCC1.O=S(=O)([N-]S(=O)(=O)C(F)(F)F)C(F)(F)F

>  <quantitative_readout>
2.23

$$$$
>  <compound>
C#CCCCCC [1-heptyne] + COCC[N+]1(C)CCCC1.O=S(=O)([N-]S(=O)(=O)C(F)(F)F)C(F)(F)F

>  <quantitative_readout>
4.55

$$$$
>  <compound>
CC#N [acetonitrile] + COCC[N+]1(C)CCCC1.O=S(=O)([N-]S(=O)(=O)C(F)(F)F)C(F)(F)F

>  <quantitative_readout>
0.479

$$$$
>  <compound>
Cc1ccccc1 [toluene] + COCC[N+]1(C)CCCC1.O=S(=O)([N-]S(=O)(=O)C(F)(F)F)C(F)(F)F

>  <quantitative_readout>
1.56

$$$$
>  <compound>
C=C(C)c1ccccc1 [(1-methylethenyl)benzene] + COCC[N+]1(C)CCCC1.O=S(=O)([N-]S(=O)(=O)C(F)(F)F)C(F)(F)F

>  <quantitative_readout>
2.12

$$$$
>  <compound>
C1CCCCCC1 [cycloheptane] + COCC[N+]1(C)CCCC1.O=S(=O)([N-]S(=O)(=O)C(F)(F)F)C(F)(F)F

>  <quantitative_readout>
10.8

$$$$
>  <compound>
O [water] + COCC[N+]1(C)CCCC1.O=S(=O)([N-]S(=O)(=O)C(F)(F)F)C(F)(F)F

>  <quantitative_readout>
1.85

$$$$
>  <compound>
C#CCCCC [1-hexyne] + COCC[N+]1(C)CCCC1.O=S(=O)([N-]S(=O)(=O)C(F)(F)F)C(F)(F)F

>  <quantitative_readout>
3.27

$$$$
>  <compound>
CCC(C)(C)OC [2-methoxy-2-methylbutane] + COCC[N+]1(C)CCCC1.O=S(=O)([N-]S(=O)(=O)C(F)(F)F)C(F)(F)F

>  <quantitative_readout>
4

$$$$

---

As shown below, each of these compounds has a reported activity coefficient value.
- assay_protocol: activity coefficient (dimensionless); of the first substance listed, at infinite dilution; xn = mol fraction of the nth substance listed
- condition_summary: 368.15 K; 101 kPa; Liquid; Chromatography; x1 = 0

>  <compound>
Cc1cccc(C)c1 [1,3-dimethylbenzene] + COCC[N+]1(C)CCCC1.O=S(=O)([N-]S(=O)(=O)C(F)(F)F)C(F)(F)F

>  <activity coefficient>
2.22

$$$$
>  <compound>
C1CCCCCCC1 [cyclooctane] + COCC[N+]1(C)CCCC1.O=S(=O)([N-]S(=O)(=O)C(F)(F)F)C(F)(F)F

>  <activity coefficient>
14

$$$$
>  <compound>
CCC(=O)CC [pentan-3-one] + COCC[N+]1(C)CCCC1.O=S(=O)([N-]S(=O)(=O)C(F)(F)F)C(F)(F)F

>  <activity coefficient>
0.919

$$$$
>  <compound>
CCCCCC [hexane] + COCC[N+]1(C)CCCC1.O=S(=O)([N-]S(=O)(=O)C(F)(F)F)C(F)(F)F

>  <activity coefficient>
14.3

$$$$
>  <compound>
C1CCCCC1 [cyclohexane] + COCC[N+]1(C)CCCC1.O=S(=O)([N-]S(=O)(=O)C(F)(F)F)C(F)(F)F

>  <activity coefficient>
8.23

$$$$
>  <compound>
CC(C)=O [acetone] + COCC[N+]1(C)CCCC1.O=S(=O)([N-]S(=O)(=O)C(F)(F)F)C(F)(F)F

>  <activity coefficient>
0.52

$$$$
>  <compound>
COC(C)=O [methyl ethanoate] + COCC[N+]1(C)CCCC1.O=S(=O)([N-]S(=O)(=O)C(F)(F)F)C(F)(F)F

>  <activity coefficient>
0.78

$$$$
>  <compound>
CCc1ccccc1 [ethylbenzene] + COCC[N+]1(C)CCCC1.O=S(=O)([N-]S(=O)(=O)C(F)(F)F)C(F)(F)F

>  <activity coefficient>
2.26

$$$$
>  <compound>
Cc1ccccc1C [1,2-dimethylbenzene] + COCC[N+]1(C)CCCC1.O=S(=O)([N-]S(=O)(=O)C(F)(F)F)C(F)(F)F

>  <activity coefficient>
2

$$$$
>  <compound>
CCCO [propan-1-ol] + COCC[N+]1(C)CCCC1.O=S(=O)([N-]S(=O)(=O)C(F)(F)F)C(F)(F)F

>  <activity coefficient>
1.48

$$$$
>  <compound>
CCC(C)O (stereo not given) [butan-2-ol] + COCC[N+]1(C)CCCC1.O=S(=O)([N-]S(=O)(=O)C(F)(F)F)C(F)(F)F

>  <activity coefficient>
1.61

$$$$
>  <compound>
c1ccccc1 [benzene] + COCC[N+]1(C)CCCC1.O=S(=O)([N-]S(=O)(=O)C(F)(F)F)C(F)(F)F

>  <activity coefficient>
1.09

$$$$
>  <compound>
CCC(C)CC [3-methylpentane] + COCC[N+]1(C)CCCC1.O=S(=O)([N-]S(=O)(=O)C(F)(F)F)C(F)(F)F

>  <activity coefficient>
12.8

$$$$
>  <compound>
CC(C)O [propan-2-ol] + COCC[N+]1(C)CCCC1.O=S(=O)([N-]S(=O)(=O)C(F)(F)F)C(F)(F)F

>  <activity coefficient>
1.34

$$$$
>  <compound>
CCCCCCC [heptane] + COCC[N+]1(C)CCCC1.O=S(=O)([N-]S(=O)(=O)C(F)(F)F)C(F)(F)F

>  <activity coefficient>
19.7

$$$$

---

- assay_protocol: activity coefficient (dimensionless); of the first substance listed, at infinite dilution; xn = mol fraction of the nth substance listed
- condition_summary: 318.15 K; 101 kPa; Liquid; Chromatography; x1 = 0
Response key: t means activity coefficient >= 2; f means activity coefficient < 2.

>  <compound>
C1=CCCCC1 [cyclohexene] + COCC[N+]1(C)CCCC1.O=S(=O)([N-]S(=O)(=O)C(F)(F)F)C(F)(F)F

>  <assigned_category>
t

$$$$
>  <compound>
CO [methanol] + COCC[N+]1(C)CCCC1.O=S(=O)([N-]S(=O)(=O)C(F)(F)F)C(F)(F)F

>  <assigned_category>
f

$$$$
>  <compound>
CCC[N+](=O)[O-] [1-nitropropane] + COCC[N+]1(C)CCCC1.O=S(=O)([N-]S(=O)(=O)C(F)(F)F)C(F)(F)F

>  <assigned_category>
f

$$$$
>  <compound>
CCO [ethanol] + COCC[N+]1(C)CCCC1.O=S(=O)([N-]S(=O)(=O)C(F)(F)F)C(F)(F)F

>  <assigned_category>
f

$$$$
>  <compound>
CCCC(C)=O [pentan-2-one] + COCC[N+]1(C)CCCC1.O=S(=O)([N-]S(=O)(=O)C(F)(F)F)C(F)(F)F

>  <assigned_category>
f

$$$$
>  <compound>
C#CCCCC [1-hexyne] + COCC[N+]1(C)CCCC1.O=S(=O)([N-]S(=O)(=O)C(F)(F)F)C(F)(F)F

>  <assigned_category>
t

$$$$
>  <compound>
CCCOCCC [dipropyl ether] + COCC[N+]1(C)CCCC1.O=S(=O)([N-]S(=O)(=O)C(F)(F)F)C(F)(F)F

>  <assigned_category>
t

$$$$
